Each entry below carries its recorded IC50.
target: human Plasma Kallikrein (Homo sapiens (Human)); test: In vitro enzyme inhibition of human plasma kallikrein (Pro-Phe-Arg-AMC cleavage); details: PFR-AMC substrate, 37° C., read-out: hPK IC50

Below, 3 compounds whose answers are already recorded.
compound=NC(=O)c1ccc(CNC(=O)c2cncc(Cc3ccc(Cn4ccccc4=O)cc3)c2)cc1 measured_value="1000 to 10000 nM"
compound=Cc1cc(C#N)ccc1CNC(=O)c1ccnc(Cc2ccc(Cn3ccccc3=O)cc2)c1 measured_value="> 10000 nM"
compound=O=C(NCc1ccc(Cl)cc1)c1cncc(Cc2ccc(Cn3ccccc3=O)cc2)c1 measured_value="1000 to 10000 nM"

We next turn to a different compound, shown below.
Prompt: Fill blank: measured IC50 of the compound CC(=O)N(Cc1ccn(Cc2cc(C(=O)NCc3cc4c(Cl)c[nH]c4cc3F)ccn2)n1)C1CC1 is ____.
Response: > 10000 nM

====

Each entry below carries its recorded IC50.
target: human Plasma Kallikrein (Homo sapiens (Human), UniProt P03952); assay: In vitro enzyme inhibition of human plasma kallikrein (Pro-Phe-Arg-AMC cleavage); details: PFR-AMC substrate, 37° C., read-out: hPK IC50
Sequence (P03952 391-638 limits assumed): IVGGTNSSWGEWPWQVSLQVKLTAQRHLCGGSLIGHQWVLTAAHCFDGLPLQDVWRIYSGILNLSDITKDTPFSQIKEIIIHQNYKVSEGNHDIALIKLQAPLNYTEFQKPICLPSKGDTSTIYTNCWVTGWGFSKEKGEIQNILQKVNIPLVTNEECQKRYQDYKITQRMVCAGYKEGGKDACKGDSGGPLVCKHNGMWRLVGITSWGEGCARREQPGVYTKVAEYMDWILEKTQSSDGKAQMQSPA
Sequence (P03952 20-390 partner limits assumed): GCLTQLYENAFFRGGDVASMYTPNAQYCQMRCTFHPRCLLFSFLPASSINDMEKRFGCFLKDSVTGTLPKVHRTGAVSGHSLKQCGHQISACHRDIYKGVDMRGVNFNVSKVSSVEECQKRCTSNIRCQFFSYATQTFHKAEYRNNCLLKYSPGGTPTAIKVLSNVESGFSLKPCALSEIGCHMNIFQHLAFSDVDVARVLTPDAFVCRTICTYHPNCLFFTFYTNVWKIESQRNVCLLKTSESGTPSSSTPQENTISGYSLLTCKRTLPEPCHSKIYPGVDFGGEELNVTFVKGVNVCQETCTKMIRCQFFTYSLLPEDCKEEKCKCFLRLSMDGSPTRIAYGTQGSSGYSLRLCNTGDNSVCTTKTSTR

Below, 3 compounds whose answers are already recorded.
compound=CS(=O)(=O)c1cc(Cc2cc(C(=O)NCc3cnc(N)cc3C(F)(F)F)ccn2)ccc1Cn1ccccc1=O subject_of_test="human Plasma Kallikrein (Homo sapiens (Human), UniProt P03952)" property_measured=IC50 measured_value="100 to 1000 nM"
compound="NC(=O)C(NC(=O)c1cncc(Cc2ccc(Cn3ccccc3=O)cc2)c1)c1n[nH]c2ccc(Cl)cc12 (stereo not drawn)" subject_of_test="human Plasma Kallikrein (Homo sapiens (Human), UniProt P03952)" property_measured=IC50 measured_value="1000 to 10000 nM"
compound=CS(=O)(=O)c1cc(Cc2cc(C(=O)NCc3n[nH]c4ccc(Cl)cc34)ccn2)ccc1Cn1ccccc1=O subject_of_test="human Plasma Kallikrein (Homo sapiens (Human), UniProt P03952)" property_measured=IC50 measured_value="≤ 100 nM"

We next turn to a different compound, shown below.
Prompt: Fill blank: measured IC50 of the compound O=C(NCc1cc2c(Cl)c[nH]c2cc1F)c1ccc(=O)n(CC23CC(Cn4ccccc4=O)(C2)C3)c1 is ____.
Response: 1000 to 10000 nM

====

target: human Plasma Kallikrein (Homo sapiens (Human), UniProt P03952); test: In vitro enzyme inhibition of human plasma kallikrein (Pro-Phe-Arg-AMC cleavage); format: biochemical; details: PFR-AMC substrate, 37° C., read-out: hPK IC50
pIC50: −log10 of the molar value.
PROPERTY_MEASURED: pIC50

compound="COc1ccc(CNC(=O)c2cncc(Cc3ccc(Cn4ccccc4=O)cc3)c2)cc1 [Example 16]" property_measured=pIC50 measured_value="5.00 to 6.00"
compound="Cc1ccc(Cc2cncc(C(=O)NCc3n[nH]c4ccc(Cl)cc34)c2)cc1 [Example 4]" property_measured=pIC50 measured_value="5.00 to 6.00"
compound="NC(=O)c1cnn(Cc2cncc(C(=O)NCc3cc4c(Cl)c[nH]c4cc3F)c2)c1 [Example 8]" property_measured=pIC50 measured_value="< 5.00"
compound="CS(=O)(=O)c1cc(Cc2cc(C(=O)NCc3ccc(N)nc3C(F)(F)F)ccn2)ccc1Cn1ccccc1=O [Example 26]" property_measured=pIC50 measured_value="5.00 to 6.00"

Prompt: API: value(readout=pIC50, system=human Plasma Kallikrein (Homo sapiens (Human), UniProt P03952)) for record Cc1cc(N)nc(C)c1CNC(=O)c1ccnc(Cc2ccc3ncc(Cl)cc3c2)n1 [Example 24]
Response: ≥ 7.00

Prompt: API: value(readout=pIC50, system=human Plasma Kallikrein (Homo sapiens (Human), UniProt P03952)) for record Cc1cc(N)nc(C)c1CNC(=O)c1cncc(Cc2ccc3ncc(Cl)cc3c2)n1 [Example 25]
Response: ≥ 7.00

Prompt: API: value(readout=pIC50, system=human Plasma Kallikrein (Homo sapiens (Human), UniProt P03952)) for record O=C(NCc1n[nH]c2ccc(Cl)cc12)c1cncc(Cc2ccccc2)c1 [Example 5]
Response: 5.00 to 6.00

Prompt: API: value(readout=pIC50, system=human Plasma Kallikrein (Homo sapiens (Human), UniProt P03952)) for record O=C(NCc1n[nH]c2ccc(Cl)cc12)c1cncc(Cc2ccc(C(F)(F)F)cc2)c1 [Example 3]
Response: 5.00 to 6.00
